Measurement Target: CYP3A4 (Homo sapiens, UniProt P08684)
Sequence (P08684 whole entry): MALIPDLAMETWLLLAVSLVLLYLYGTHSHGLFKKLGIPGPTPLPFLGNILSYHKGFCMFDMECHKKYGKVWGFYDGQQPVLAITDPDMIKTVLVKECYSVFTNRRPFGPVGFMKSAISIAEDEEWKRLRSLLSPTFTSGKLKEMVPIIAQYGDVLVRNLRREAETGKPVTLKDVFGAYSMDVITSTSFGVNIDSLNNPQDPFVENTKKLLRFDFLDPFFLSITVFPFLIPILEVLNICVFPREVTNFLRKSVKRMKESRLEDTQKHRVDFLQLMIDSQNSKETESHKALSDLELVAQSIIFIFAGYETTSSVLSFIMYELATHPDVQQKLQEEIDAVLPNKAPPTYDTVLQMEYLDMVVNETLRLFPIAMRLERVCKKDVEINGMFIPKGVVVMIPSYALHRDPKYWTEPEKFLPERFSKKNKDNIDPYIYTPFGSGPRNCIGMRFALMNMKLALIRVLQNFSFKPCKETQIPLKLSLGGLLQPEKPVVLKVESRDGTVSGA
Measurement Protocol: Inhibition of human recombinant CYP3A4 using BFC as substrate at 1 uM by fluorimetric assay
Type: ADME
Conditions Used: recombinant CYP3A4, probe BFC
Overview of reported inhibition at 1 µM across a group of compounds:

Some solved cases for reference:
| Test Smiles | inhibition at 1 µM |
| --- | --- |
| Cc1ccc(-c2ncccn2)c(C(=O)N2CC3(CC3)C[C@H]2CNc2cc(C(F)(F)F)ccn2)c1 | < 72% |
| Cc1nc(C(=O)N2CC3(CC3)C[C@H]2CNc2ccc(C(F)(F)F)cn2)c(-c2ccccc2)s1 | < 20% |
| Cc1ccc(-c2ncccn2)c(C(=O)N2CC3(CC3)C[C@H]2CNc2cc(C(F)(F)F)ccn2)n1 | < 39% |
| Cc1ccc(-c2ncccn2)c(C(=O)N2CC3(CC3)C[C@H]2CNc2ccc(Cl)cn2)c1 | < 53% |

Read the next record carefully.
**Query** Record Cc1ccc(-n2nccn2)c(C(=O)N2CC3(CC3)C[C@H]2CNc2cccc(C)n2)c1 : what is its inhibition at 1 µM with CYP3A4 (Homo sapiens, UniProt P08684)?
**Result** < 34%

* * *

Measurement Target: CYP2D6 (Homo sapiens)
Sequence (P10635 whole entry): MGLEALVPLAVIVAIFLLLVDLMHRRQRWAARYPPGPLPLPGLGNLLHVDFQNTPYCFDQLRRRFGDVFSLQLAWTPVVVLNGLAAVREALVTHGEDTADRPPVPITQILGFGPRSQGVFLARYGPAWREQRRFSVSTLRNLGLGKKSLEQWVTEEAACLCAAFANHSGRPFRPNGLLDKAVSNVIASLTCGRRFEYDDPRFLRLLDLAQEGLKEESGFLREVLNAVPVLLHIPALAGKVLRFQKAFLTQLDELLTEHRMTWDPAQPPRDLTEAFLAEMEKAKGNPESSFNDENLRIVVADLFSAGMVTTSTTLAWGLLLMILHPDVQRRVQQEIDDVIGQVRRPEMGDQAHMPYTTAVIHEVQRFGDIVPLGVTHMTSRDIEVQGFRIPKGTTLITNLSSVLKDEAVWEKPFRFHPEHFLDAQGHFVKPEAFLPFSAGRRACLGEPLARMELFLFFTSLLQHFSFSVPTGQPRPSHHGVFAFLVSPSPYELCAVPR
Measurement Protocol: Inhibition of human recombinant CYP2D6 at 1 uM by fluorimetric assay
Assay type: ADME
Overview of reported inhibition at 1 µM across a group of molecules:

| Test Smiles | Recorded Result |
| --- | --- |
| Cc1cc(C(F)(F)F)cc(NC[C@@H]2CC3(CC3)CN2C(=O)c2nc(C)sc2-c2ccccc2)n1 | < 69% |
| Cc1cc(C)nc(NC[C@@H]2CC3(CC3)CN2C(=O)c2nc(C)sc2-c2ccccc2)n1 | < 16% |
| Cc1nc(C(=O)N2CC3(CC3)C[C@H]2CNc2cc(C(F)(F)F)ccn2)c(-c2ccccc2)s1 | < 55% |
| Cc1ccc(-c2ncccn2)c(C(=O)N2CC3(CC3)C[C@H]2CNc2cc(C(F)(F)F)ccn2)n1 | < 39% |
| Cc1ccc(-c2ncccn2)c(C(=O)N2CC3(CC3)C[C@H]2CNc2cc(C(F)(F)F)ccn2)c1 | < 72% |

**Query** Please look up its inhibition at 1 µM: Cc1ccc(-c2ncccn2)c(C(=O)N2CC3(CC3)C[C@H]2CNc2ccc(Cl)cn2)c1
**Result** < 53%

**Query** Please look up its inhibition at 1 µM: Cc1ccc(-n2nccn2)c(C(=O)N2CC3(CC3)C[C@H]2CNc2cccc(C)n2)c1
**Result** < 34%

**Query** Please look up its inhibition at 1 µM: Cc1ccc(-c2ncccn2)c(C(=O)N2CC3(CC3)C[C@H]2CNc2cc(C#N)ccn2)n1
**Result** < 17%

**Query** Please look up its inhibition at 1 µM: Cc1nc(C(=O)N2CC3(CC3)C[C@H]2CNc2ccc(C(F)(F)F)cn2)c(-c2ccccc2)s1
**Result** < 20%

**Query** Please look up its inhibition at 1 µM: O=C(c1cc(Cl)ccc1-c1ncccn1)N1CC2(CC2)C[C@H]1CNc1cc(C(F)(F)F)ccn1
**Result** < 57%

* * *

Overview of reported inhibition at 3 µM across a group of compounds:
Measurement Target: CYP1A2 (Homo sapiens)
Sequence (P05177 whole entry): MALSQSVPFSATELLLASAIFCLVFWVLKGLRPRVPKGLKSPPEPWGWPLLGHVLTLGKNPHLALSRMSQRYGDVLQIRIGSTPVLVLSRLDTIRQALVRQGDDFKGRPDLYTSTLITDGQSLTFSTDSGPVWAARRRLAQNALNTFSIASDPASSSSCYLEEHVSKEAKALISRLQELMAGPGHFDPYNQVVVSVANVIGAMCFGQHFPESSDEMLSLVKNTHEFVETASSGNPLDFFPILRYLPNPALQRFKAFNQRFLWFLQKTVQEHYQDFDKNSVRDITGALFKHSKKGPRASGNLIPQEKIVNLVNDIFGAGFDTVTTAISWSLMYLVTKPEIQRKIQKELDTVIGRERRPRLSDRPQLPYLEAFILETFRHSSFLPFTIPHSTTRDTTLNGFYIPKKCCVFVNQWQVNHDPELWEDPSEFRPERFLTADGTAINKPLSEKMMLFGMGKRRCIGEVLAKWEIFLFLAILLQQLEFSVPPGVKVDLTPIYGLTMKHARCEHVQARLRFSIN
Measurement Protocol: Inhibition of human recombinant CYP1A2 at 3 uM by fluorimetric assay
Type: ADME

| Test Smiles | inhibition at 3 µM |
| --- | --- |
| O=C(c1ncccc1-c1ncccn1)N1CC2(CC2)C[C@H]1CNc1ccc(C(F)(F)F)cn1 | < 47% |
| Cc1ccc(-c2ccccc2)c(C(=O)N2CC3(CC3)C[C@H]2CNc2ccc(C(F)(F)F)cn2)n1 | < 20% |
| Cc1ccc(OCc2ccccc2)c(C(=O)N2CC3(CC3)C[C@H]2CNc2ccc(C(F)(F)F)cn2)n1 | < 71% |

**Query** Record N#Cc1ccc(-c2ncccn2)c(C(=O)N2CC3(CC3)C[C@H]2CNc2ccc(C(F)(F)F)cn2)c1 : what is its inhibition at 3 µM with CYP1A2 (Homo sapiens)?
**Result** < 32%
